Data origin: the supplement of paper PMC13380429

List of drug sensitivity score values.
- Tested on: U2OS
- ASSAY TEXT: drug sensitivity score (DSS) for viability; higher = more toxic; extreme values may be limits of the assay
- ASSAY SETUP: 72 h
PARAMETER: drug sensitivity score

{"columns": ["COMPOUND", "EXPERIMENTAL TARGET", "VAL"],
 "data": [
  ["O=c1[nH]cnc2c1ncn2[C@H]1CC[C@@H](CO)O1 [didanosine]", "U2OS", 0],
  ["Clc1ccc(C(Cn2ccnc2)OCc2ccc(Sc3ccccc3)cc2)c(Cl)c1 (stereo not given) [fenticonazole]", "U2OS", 0],
  ["O=C1C=Cc2cc(Br)ccc2C1=O [bonaphthone]", "U2OS", 0.1],
  ["CCCOC(C(=O)OC1CCN(C)CC1)(c1ccccc1)c1ccccc1 [propiverine]", "U2OS", 0],
  ["CCOCCOc1ccccc1C(N)=O [etosalamide]", "U2OS", 0]
]}

---

Entries and their cell viability
- System: Caco-2
- ASSAY TEXT: cell viability relative to DMSO; higher = less toxic
- ASSAY SETUP: 72 h; 1000 nM
Counter-ions that a name gives are not always drawn.

{"columns": ["COMPOUND", "EXPERIMENTAL TARGET", "UNIT OF MEASUREMENT", "cell viability"],
 "data": [
  ["CCCCCOc1c(OC)ccc2cc(C(=O)NCc3ccc4c(c3)OCO4)c(=O)[nH]c12", "Caco-2", "%", 101],
  ["OCCCNc1cc(-c2ccnc(Nc3cccc(Cl)c3)n2)ccn1", "Caco-2", "%", 26.1],
  ["CC(C)[C@@H]1C(=O)N(S(C)(=O)=O)[C@@H]2CCN(C(=O)/C=C/CN3CCCCC3)[C@H]21", "Caco-2", "%", 97.6],
  ["CCOC(=O)c1ncn2c1CN(C)C(=O)c1cc(F)ccc1-2", "Caco-2", "%", 102],
  ["CCCN(CCC)C(=O)C(CCC(=O)OCCCN1CCN(CCOC(=O)Cc2c(C)n(C(=O)c3ccc(Cl)cc3)c3ccc(OC)cc23)CC1)NC(=O)c1ccccc1 (stereo not drawn)", "Caco-2", "%", 112],
  ["C[C@@H](c1ncncc1F)[C@](O)(Cn1cncn1)c1ccc(F)cc1F", "Caco-2", "%", 85.6],
  ["FC(F)(F)c1ccc(/C=C/c2nc(COc3ccc(CCCCn4ccnn4)cc3)co2)cc1", "Caco-2", "%", 81.6],
  ["N[C@@H](Cc1ccc(Cl)cc1)C(=O)O (racemic) [fenclonine-(+/-)]", "Caco-2", "%", 97.5],
  ["Cc1ccc2nc(NCCN)c3ncc(C)n3c2c1", "Caco-2", "%", 102],
  ["CN1CCOC(c2ccccc2)c2ccccc2C1 (stereo not drawn)", "Caco-2", "%", 99.5],
  ["O=C(O[C@H]1C[C@H]2CC[C@@H](C1)[N+]21CCCC1)C(O)(c1ccccc1)c1ccccc1", "Caco-2", "%", 98.3],
  ["Cn1cnc(-c2cc3nccc(Oc4ccc(NC(=S)NC(=O)Cc5ccccc5)cc4F)c3s2)c1", "Caco-2", "%", 84],
  ["CCOC(=O)CCNc1cc(N2CCc3ccccc3CC2)nc(-c2ccccn2)n1", "Caco-2", "%", 70.9],
  ["CN1CCN(c2cc(-c3ccccc3)nc(N)n2)CC1", "Caco-2", "%", 91.8],
  ["CCN1CCC[C@H]1CNC(=O)c1c(OC)ccc(Br)c1OC [remoxipride]", "Caco-2", "%", 99.1],
  ["C[S+](C)CC[C@H](N)C(=O)O", "Caco-2", "%", 97.3],
  ["CN(C)CC/C=C1/c2ccccc2COc2ccccc21 [doxepin]", "Caco-2", "%", 102],
  ["c1cnc(N2CCN(Cc3ccc4c(c3)OCO4)CC2)nc1", "Caco-2", "%", 92.9],
  ["N[C@@H](CCNCc1ccc(Cl)cc1)C(=O)N1CCCCC1", "Caco-2", "%", 96.6],
  ["Cc1ccc(O)c(N=Nc2ccccc2)n1", "Caco-2", "%", 103],
  ["C[N@+]1(CC2CC2)CC[C@]23c4c5ccc(O)c4O[C@H]2C(=O)CC[C@@]3(O)[C@H]1C5 [methylnaltrexone]", "Caco-2", "%", 94.2],
  ["CC[C@]12CCCN3CCc4c(n(c5ccccc45)C(=O)C1)[C@@H]32", "Caco-2", "%", 114],
  ["O=C(O)c1ccccc1Nc1cccc(C(F)(F)F)c1", "Caco-2", "%", 101],
  ["CCn1cc(C(=O)O)c(=O)c2cc(F)c(N3CCNCC3)nc21", "Caco-2", "%", 99.2],
  ["CCC(=O)NC[C@H](Cc1ccc(OCCc2nc(-c3ccccc3)oc2C)cc1)N/C(C)=C\\C(=O)c1ccc(C(F)(F)F)cc1", "Caco-2", "%", 97.8],
  ["O=C1CN(/N=C/c2ccc([N+](=O)[O-])o2)C(=O)N1", "Caco-2", "%", 89.9],
  ["COc1ccc(/C=C/C(=O)O)cc1 [trans-4-methoxycinnamic-acid]", "Caco-2", "%", 100],
  ["O=c1cc[nH]c(=O)[nH]1", "Caco-2", "%", 93.8],
  ["NC(=O)N/N=C/c1ccc([N+](=O)[O-])o1", "Caco-2", "%", 101],
  ["COC(=O)C(c1ccccc1)C1CCCCN1 (stereo not drawn) [METHYLPHENIDATE HYDROCHLORIDE]", "Caco-2", "%", 103],
  ["O=C1C=Cc2cc(Br)ccc2C1=O", "Caco-2", "%", 102],
  ["COC(=O)[C@H](CC(C)C)NC(=O)c1ccc(NC[C@@H](N)CS)cc1-c1cccc2ccccc12", "Caco-2", "%", 98.8],
  ["CCc1nc(C)ccc1O", "Caco-2", "%", 98.6],
  ["N=C(N)NC(=N)Nc1ccccc1 [1-phenylbiguanide]", "Caco-2", "%", 92.4],
  ["Nc1nc(=O)c2c([nH]1)NCC(CNc1ccc(C(=O)N[C@@H](CCC(=O)O)C(=O)O)cc1)N2C=O (stereo partly drawn)", "Caco-2", "%", 100],
  ["N=C(N)NC(=O)c1cnn(-c2cccc3ncccc23)c1C1CC1 [zoniporide]", "Caco-2", "%", 102],
  ["C[C@]12C[C@H](O)[C@H]3[C@@H](CCC4=CC(=O)CC[C@@]43C)[C@@H]1CC[C@@H]2C(=O)CO", "Caco-2", "%", 101],
  ["Cc1ccc2c(c1)[C@H]1CN(C)CC[C@H]1N2", "Caco-2", "%", 96]
]}

---

- System: Caco-2
- ASSAY TEXT: cell viability relative to DMSO; higher = less toxic
- ASSAY SETUP: 72 h; 10000 nM
PARAMETER: cell viability (%)

{"columns": ["COMPOUND", "EXPERIMENTAL TARGET", "VAL"],
 "data": [
  ["Clc1ccc(C(Cn2ccnc2)OCc2ccc(Sc3ccccc3)cc2)c(Cl)c1 (configuration not stated)", "Caco-2", 73.3],
  ["O=C1CN(/N=C/c2ccc([N+](=O)[O-])o2)C(=O)N1", "Caco-2", 103],
  ["Cn1cnc(-c2cc3nccc(Oc4ccc(NC(=S)NC(=O)Cc5ccccc5)cc4F)c3s2)c1", "Caco-2", 63.6],
  ["CCOCCOc1ccccc1C(N)=O [etosalamide]", "Caco-2", 100],
  ["CCCCCOc1ccc(-c2ccc(-c3ccc(C(=O)N[C@H]4C[C@@H](O)[C@@H](O)NC(=O)[C@@H]5[C@@H](O)[C@@H](C)CN5C(=O)[C@H]([C@@H](C)O)NC(=O)[C@H]([C@H](O)[C@@H](O)c5ccc(O)cc5)NC(=O)[C@@H]5C[C@@H](O)CN5C(=O)[C@H]([C@@H](C)O)NC4=O)cc3)cc2)cc1", "Caco-2", 59.2],
  ["CN1CCCN(C(c2ccccc2)c2ccc(Cl)cc2)CC1 (configuration not stated)", "Caco-2", 101],
  ["CC(C)[C@@H]1C(=O)N(S(C)(=O)=O)[C@@H]2CCN(C(=O)/C=C/CN3CCCCC3)[C@H]21", "Caco-2", 94.4]
]}

---

Parameter: cell viability. Scope: all listed entries.
- Test system: Calu-3
- ASSAY TEXT: cell viability relative to DMSO; higher = less toxic
- ASSAY SETUP: 72 h; 1 nM

{"columns": ["MOLECULE", "EXPERIMENTAL TARGET", "UNIT OF MEASUREMENT", "cell viability"],
 "data": [
  ["Oc1cc2c(c(Cl)c1O)CCNCC2c1ccccc1 (centres undefined)", "Calu-3", "%", 95.1],
  ["C[C@]12CC[C@@H]3c4ccc(OS(=O)(=O)O)cc4CC[C@H]3[C@@H]1CCC2=O [estropipate]", "Calu-3", "%", 99.1],
  ["Nc1nc(O)c2nc(Br)n([C@@H]3O[C@@H]4COP(=O)(O)O[C@H]4[C@H]3O)c2n1", "Calu-3", "%", 105],
  ["CCCCC/N=c1\\ccn(Cc2ccccc2)c2ccccc12", "Calu-3", "%", 97],
  ["COc1ccc2[nH]c(-c3ccccc3)c(CCNC(C)=O)c2c1", "Calu-3", "%", 96.5],
  ["CC1(C)C(=O)N(c2ccc(C#N)c(C(F)(F)F)c2)C(=O)N1CCCCO", "Calu-3", "%", 104],
  ["Cc1cccc(CN2CCN(C(c3ccccc3)c3ccc(Cl)cc3)CC2)c1 (centres undefined)", "Calu-3", "%", 92.7],
  ["CC(C)(C)c1ccc(CN(Cc2cccc(OCC(=O)O)c2)S(=O)(=O)c2cccnc2)cc1", "Calu-3", "%", 110],
  ["CC(=O)N[C@@H](Cc1ccc(O)cc1)C(=O)O", "Calu-3", "%", 105]
]}
